Origin of the recorded values: patent US20240391954A1

Hi there, I'd appreciate the recorded MC4R selectivity vs MC1R for every entry that follows.
assayed.system: human MC1R (Homo sapiens, UniProt Q01726)
Construct: expressed in transfected cells; host or cells: HEK-293 cells stably expressing hMC1R and the GScAMP22F cAMP sensor
Sequence (Q01726 whole entry): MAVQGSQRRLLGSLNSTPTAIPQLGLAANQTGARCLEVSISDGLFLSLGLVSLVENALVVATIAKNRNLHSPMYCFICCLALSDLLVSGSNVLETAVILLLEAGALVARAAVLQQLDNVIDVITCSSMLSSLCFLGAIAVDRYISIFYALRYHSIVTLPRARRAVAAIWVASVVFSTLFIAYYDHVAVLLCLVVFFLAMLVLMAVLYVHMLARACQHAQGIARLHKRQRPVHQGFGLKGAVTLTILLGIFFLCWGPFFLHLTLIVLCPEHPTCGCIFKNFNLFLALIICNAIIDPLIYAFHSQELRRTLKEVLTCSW
procedure.text: split-luciferase cAMP sensor assay, agonist mode, hMC1R
Type: cell-based
experimental.parameters: MC4R versus MC1R
Positions of bridges follow the written chain, without caps; N, C: chain ends. Non-standard residues stand in square brackets, D forms with d. Residues, ends and D or L forms follow the SMILES beside them. NMeW = CN[C@@H](Cc1c[nH]c2ccccc12)C(=O)O; d(αMeF) = C[C@@](N)(Cc1ccccc1)C(=O)O; NMeH = CN[C@@H](Cc1c[nH]cn1)C(=O)O; hCit = NC(=O)NCCCC[C@H](N)C(=O)O; Aib = CC(C)(N)C(=O)O
Numbers only.

Example entries begin here.
molecule	assayed.system	MC4R selectivity vs MC1R
CC(=O)N[C@@H](CCCNC(=N)N)C(=O)N[C@H]1CSSC[C@@H](C(N)=O)NC(=O)[C@H](Cc2c[nH]c3ccccc23)NC(=O)[C@H](CCCNC(=N)N)NC(=O)[C@@](C)(Cc2ccccc2)NC(=O)[C@H](CCCNC(=N)N)NC(=O)[C@@H](C)NC1=O [CTX-1278] (Ac-RC[dA]R[d(αMeF)]RWC-NH2; disulfide 2-8 (inferred))	human MC1R (Homo sapiens, UniProt Q01726)	1.13
CC(=O)N[C@@H](CCCNC(=N)N)C(=O)N[C@H]1CSSC[C@@H](C(N)=O)NC(=O)[C@H](Cc2ccccc2)NC(=O)[C@H](CCCNC(=N)N)NC(=O)[C@@H](Cc2ccccc2)NC(=O)[C@H](CCCCNC(N)=O)NC(=O)C(C)(C)NC1=O [CTX-1603] (Ac-RC[Aib][hCit][dF]RFC-NH2; disulfide 2-8 (inferred))	human MC1R (Homo sapiens, UniProt Q01726)	2.46

Next item in the queue.
Qu. So what's the measured MC4R selectivity vs MC1R for this one? C[C@H]1NC(=O)CSC[C@@H](C(N)=O)NC(=O)[C@H](Cc2c[nH]c3ccccc23)N(C)C(=O)[C@H](CCCNC(=N)N)NC(=O)[C@@H](Cc2ccccc2)NC(=O)[C@H](Cc2c[nH]cn2)N(C)C1=O [CTX-1203] ({CH2CO}-[dA][NMeH][dF]R[NMeW]C-NH2; thioether N-6)
Ans. 2.32
